- assayed_target: Factor X, P00742
- Sequence (P00742 whole entry, looked up): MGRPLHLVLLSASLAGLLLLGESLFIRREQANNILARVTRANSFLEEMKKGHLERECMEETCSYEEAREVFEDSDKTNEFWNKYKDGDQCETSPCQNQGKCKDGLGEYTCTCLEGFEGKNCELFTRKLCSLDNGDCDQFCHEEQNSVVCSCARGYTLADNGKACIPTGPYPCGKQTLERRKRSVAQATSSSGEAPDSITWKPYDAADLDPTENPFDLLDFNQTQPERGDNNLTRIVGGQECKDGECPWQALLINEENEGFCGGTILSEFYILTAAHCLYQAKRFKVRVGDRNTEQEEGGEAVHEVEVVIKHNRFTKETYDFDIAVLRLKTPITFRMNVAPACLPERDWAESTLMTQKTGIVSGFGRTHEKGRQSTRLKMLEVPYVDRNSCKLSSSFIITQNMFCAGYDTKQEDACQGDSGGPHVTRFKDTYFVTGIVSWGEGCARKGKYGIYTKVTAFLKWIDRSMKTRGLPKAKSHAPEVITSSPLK
Parameter: kcat/KM. Scope: all listed entries.
measured_attribute: kcat/KM

INSERT INTO measurements (protein, measured_attribute, experimental_value) VALUES
  ('FIXa-R318Y/R338E/R403E/E410N (mature FIX numbering) (protein) chain 1: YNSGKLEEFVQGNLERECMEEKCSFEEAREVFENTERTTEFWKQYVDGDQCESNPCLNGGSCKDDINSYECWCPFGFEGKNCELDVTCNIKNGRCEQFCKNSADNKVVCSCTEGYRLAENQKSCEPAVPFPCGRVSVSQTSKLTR chain 2: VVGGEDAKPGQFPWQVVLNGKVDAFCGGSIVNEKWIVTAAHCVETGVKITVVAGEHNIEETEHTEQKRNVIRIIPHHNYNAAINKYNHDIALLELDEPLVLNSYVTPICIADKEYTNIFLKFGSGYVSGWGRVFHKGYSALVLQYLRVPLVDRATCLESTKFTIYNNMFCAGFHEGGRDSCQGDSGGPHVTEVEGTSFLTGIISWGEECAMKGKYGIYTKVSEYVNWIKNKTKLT', 'kcat/KM', '1.2e+08 M⁻¹ s⁻¹'),
  ('FIXa-K247N/N249S/R338E/R403E/E410N (protein) chain 1: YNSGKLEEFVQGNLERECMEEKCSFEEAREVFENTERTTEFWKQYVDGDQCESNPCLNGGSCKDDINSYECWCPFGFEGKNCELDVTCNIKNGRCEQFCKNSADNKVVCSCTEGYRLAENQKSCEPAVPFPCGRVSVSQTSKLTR chain 2: VVGGEDAKPGQFPWQVVLNGKVDAFCGGSIVNEKWIVTAAHCVETGVKITVVAGEHNIEETEHTEQNRSVIRIIPHHNYNAAINKYNHDIALLELDEPLVLNSYVTPICIADKEYTNIFLKFGSGYVSGWGRVFHKGRSALVLQYLRVPLVDRATCLESTKFTIYNNMFCAGFHEGGRDSCQGDSGGPHVTEVEGTSFLTGIISWGEECAMKGKYGIYTKVSEYVNWIKNKTKLT', 'kcat/KM', '1.9e+08 M⁻¹ s⁻¹'),
  ('FIXa-R318Y/R338E/T343R/R403E (protein) chain 1: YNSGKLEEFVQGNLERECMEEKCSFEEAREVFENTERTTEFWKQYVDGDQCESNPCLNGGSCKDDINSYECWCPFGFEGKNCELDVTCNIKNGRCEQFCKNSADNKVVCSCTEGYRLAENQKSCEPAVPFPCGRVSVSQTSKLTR chain 2: VVGGEDAKPGQFPWQVVLNGKVDAFCGGSIVNEKWIVTAAHCVETGVKITVVAGEHNIEETEHTEQKRNVIRIIPHHNYNAAINKYNHDIALLELDEPLVLNSYVTPICIADKEYTNIFLKFGSGYVSGWGRVFHKGYSALVLQYLRVPLVDRATCLESTKFRIYNNMFCAGFHEGGRDSCQGDSGGPHVTEVEGTSFLTGIISWGEECAMKGKYGIYTKVSEYVNWIKEKTKLT', 'kcat/KM', '1.6e+08 M⁻¹ s⁻¹'),
  ('FIXa-R318Y/R338E/R403E/E410S (protein) chain 1: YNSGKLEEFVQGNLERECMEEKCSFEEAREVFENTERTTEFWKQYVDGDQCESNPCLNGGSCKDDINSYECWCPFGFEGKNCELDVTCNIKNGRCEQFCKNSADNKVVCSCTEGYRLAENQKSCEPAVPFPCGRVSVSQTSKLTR chain 2: VVGGEDAKPGQFPWQVVLNGKVDAFCGGSIVNEKWIVTAAHCVETGVKITVVAGEHNIEETEHTEQKRNVIRIIPHHNYNAAINKYNHDIALLELDEPLVLNSYVTPICIADKEYTNIFLKFGSGYVSGWGRVFHKGYSALVLQYLRVPLVDRATCLESTKFTIYNNMFCAGFHEGGRDSCQGDSGGPHVTEVEGTSFLTGIISWGEECAMKGKYGIYTKVSEYVNWIKSKTKLT', 'kcat/KM', '1.8e+08 M⁻¹ s⁻¹');

Origin of the recorded values: patent US20210238260
